Assay: basal RPMI8226 viability, no added stimulus, profiling panel, cell-based, calcein-AM fluorescence, 48 h, PK04 Diversity Set (AID 1166);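 note: cells grown under basal conditions without added stimulus; test concentration not given here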
Conditions: RPMI8226 myeloma viability, higher = more signal
VALUE_KIND: z-score

CC(C)CON=C1C[C@@H](O)[C@@H](O)[C@@H]2[C@@H]3C(=O)N(Cc4ccccc4)C(=O)[C@@H]3CC[C@@H]12: -0.129
CC(CCC(=O)OC[C@H]1O[C@H](C#Cc2ccccc2)C=C[C@@H]1Oc1ccc(C)cc1)=NOC[C@@H](O)[C@H]1O[C@@H]2OC(C)(C)O[C@@H]2[C@H]1O: -1.53
COCCOC(=O)N1C(=O)[C@@]2(c3cc(C#CC4(O)CCCCCC4)ccc31)[C@H](C(=O)N1CCN(c3ncccn3)CC1)[C@H]1C(=O)O[C@H](c3ccccc3)[C@H](c3ccccc3)N1[C@@H]2c1ccc(OCCO)cc1: -1.9
[N-]=[N+]=NCc1ccccc1[C@@H]1OC(c2ccc(OCCCO)cc2)=N[C@]1(Cc1ccccc1)C(=O)N1CCOCC1: -0.275
COCCCNC(=O)[C@]1(CCC(=O)OC(C)(C)C)N=C(c2ccc(OCCCO)cc2)O[C@@H]1c1ccccc1N=[N+]=[N-]: -0.387
O=C1O[C@@H](c2ccccc2)[C@@H](c2ccccc2)N2[C@@H](c3ccc(OCCO)cc3)[C@]3(C(=O)Nc4ccccc43)[C@@H](C(=O)N3CCN(c4ncccn4)CC3)[C@H]12: 0.229
